- Tested on: Staphylococcus aureus
- PROTOCOL_TEXT: Antibacterial activity against Staphylococcus aureus ATCC 25923 assessed as bacterial growth inhibition incubated for 24 hrs by CLSI based broth microdilution method
- Type: functional
Documented MIC across a set of compounds

C=C[C@]1(C)C[C@@H](OC(=O)COC(=O)/C=C/c2ccsc2)[C@]2(C)[C@H](C)CC[C@]3(CCC(=O)[C@H]32)[C@@H](C)[C@@H]1O = 32 µg/mL
C=C[C@]1(C)C[C@@H](OC(=O)COC(=O)/C=C/c2ccc(Cn3ccnc3)cc2)[C@]2(C)[C@H](C)CC[C@]3(CCC(=O)[C@H]32)[C@@H](C)[C@@H]1O = 8 µg/mL
C=C[C@]1(C)C[C@@H](OC(=O)COC(=O)/C=C/c2ccc(C(F)(F)F)cc2F)[C@]2(C)[C@H](C)CC[C@]3(CCC(=O)[C@H]32)[C@@H](C)[C@@H]1O = 8 µg/mL
C=C[C@]1(C)C[C@@H](OC(=O)COC(=O)/C=C/c2cccc(Cl)c2)[C@]2(C)[C@H](C)CC[C@]3(CCC(=O)[C@H]32)[C@@H](C)[C@@H]1O = 16 µg/mL
C=C[C@]1(C)C[C@@H](OC(=O)COC(=O)/C=C/c2ccc(F)c(F)c2F)[C@]2(C)[C@H](C)CC[C@]3(CCC(=O)[C@H]32)[C@@H](C)[C@@H]1O = 32 µg/mL
C=C[C@]1(C)C[C@@H](OC(=O)COC(=O)/C=C/c2ccncc2)[C@]2(C)[C@H](C)CC[C@]3(CCC(=O)[C@H]32)[C@@H](C)[C@@H]1O = 8 µg/mL

So what's the measured MIC for this one? `C=C[C@]1(C)C[C@@H](OC(=O)COC(=O)/C=C/c2ccc([N+](=O)[O-])cc2)[C@]2(C)[C@H](C)CC[C@]3(CCC(=O)[C@H]32)[C@@H](C)[C@@H]1O`
8 µg/mL

So what's the measured MIC for this one? `C=C[C@]1(C)C[C@@H](OC(=O)COC(=O)/C=C/c2ccc(F)cc2)[C@]2(C)[C@H](C)CC[C@]3(CCC(=O)[C@H]32)[C@@H](C)[C@@H]1O`
16 µg/mL

So what's the measured MIC for this one? `C=C[C@]1(C)C[C@@H](OC(=O)COC(=O)/C=C/c2ccc(N(C)C)cc2)[C@]2(C)[C@H](C)CC[C@]3(CCC(=O)[C@H]32)[C@@H](C)[C@@H]1O`
1 µg/mL

So what's the measured MIC for this one? `C=C[C@]1(C)C[C@@H](OC(=O)COC(=O)/C=C/c2ccc(C#N)cc2)[C@]2(C)[C@H](C)CC[C@]3(CCC(=O)[C@H]32)[C@@H](C)[C@@H]1O`
32 µg/mL

So what's the measured MIC for this one? `C=C[C@]1(C)C[C@@H](OC(=O)COC(=O)/C=C/c2ccc3ccccc3c2)[C@]2(C)[C@H](C)CC[C@]3(CCC(=O)[C@H]32)[C@@H](C)[C@@H]1O`
16 µg/mL

====

- PROTOCOL_TEXT: Toxicity in fasted Sprague-Dawley rat assessed as mortality rate at 224 mg/kg, IG measured for 14 days
- Type: organism-based
- REPORTED_CONDITIONS: in vivo, po, time 14 day
READOUT_NAME: mortality at 336 h (%)
Kindly answer with a numeric value in %, unit omitted.

So what's the measured mortality at 336 h for this one? `C=C[C@]1(C)C[C@@H](OC(=O)COC(=O)/C=C/c2ccc(N(C)C)cc2)[C@]2(C)[C@H](C)CC[C@]3(CCC(=O)[C@H]32)[C@@H](C)[C@@H]1O`
0

====

- PROTOCOL_TEXT: Toxicity in fasted Sprague-Dawley rat assessed as mortality rate at 100 mg/kg, IG measured for 14 days
- Assay type: organism-based
- REPORTED_CONDITIONS: in vivo, po, time 14 day
READOUT_NAME: mortality at 336 h (%)
Kindly answer with a numeric value in %, unit omitted.

So what's the measured mortality at 336 h for this one? `C=C[C@]1(C)C[C@@H](OC(=O)COC(=O)/C=C/c2ccc(N(C)C)cc2)[C@]2(C)[C@H](C)CC[C@]3(CCC(=O)[C@H]32)[C@@H](C)[C@@H]1O`
0

====

- Tested on: Staphylococcus aureus
- PROTOCOL_TEXT: Antibacterial activity against methicillin-resistant Staphylococcus aureus 575 clinical isolate assessed as bacterial growth inhibition incubated for 24 hrs by CLSI based broth microdilution method
- Format: functional
READOUT_NAME: MIC (µg/mL)
Kindly answer with a numeric value in µg/mL, unit omitted.

Examples with answers:
C=C[C@]1(C)C[C@@H](OC(=O)COC(=O)/C=C/c2cccnc2)[C@]2(C)[C@H](C)CC[C@]3(CCC(=O)[C@H]32)[C@@H](C)[C@@H]1O = 64
C=C[C@]1(C)C[C@@H](OC(=O)CSC(C)(C)CNC(=O)[C@H](N)C(C)C)[C@]2(C)[C@H](C)CC[C@]3(CCC(=O)[C@H]32)[C@@H](C)[C@@H]1O = 128
C=C[C@]1(C)C[C@@H](OC(=O)COC(=O)/C=C/c2cccc(C#N)c2)[C@]2(C)[C@H](C)CC[C@]3(CCC(=O)[C@H]32)[C@@H](C)[C@@H]1O = 64

Turning now to a further record.
So what's the measured MIC for this one? `C=C[C@]1(C)C[C@@H](OC(=O)COC(=O)/C=C/c2ccc([N+](=O)[O-])cc2)[C@]2(C)[C@H](C)CC[C@]3(CCC(=O)[C@H]32)[C@@H](C)[C@@H]1O`
16

====

Documented MIC across a set of compounds
- System: Staphylococcus aureus
- PROTOCOL_TEXT: Antibacterial activity against Staphylococcus aureus ATCC 25923 assessed as bacterial growth inhibition incubated for 24 hrs by CLSI based broth microdilution method
- Assay type: functional
Kindly answer with a numeric value in µg/mL, unit omitted.

Examples with answers:
C=C[C@]1(C)C[C@@H](OC(=O)COC(=O)/C(C#N)=C/c2ccccc2)[C@]2(C)[C@H](C)CC[C@]3(CCC(=O)[C@H]32)[C@@H](C)[C@@H]1O = 4
C=C[C@]1(C)C[C@@H](OC(=O)COC(=O)/C=C/c2cccc(C(F)(F)F)c2)[C@]2(C)[C@H](C)CC[C@]3(CCC(=O)[C@H]32)[C@@H](C)[C@@H]1O = 32
C=C[C@]1(C)C[C@@H](OC(=O)COC(=O)/C=C/c2ccc(C(F)(F)F)cc2)[C@]2(C)[C@H](C)CC[C@]3(CCC(=O)[C@H]32)[C@@H](C)[C@@H]1O = 16
C=C[C@]1(C)C[C@@H](OC(=O)CS[C@@H]2C[C@H]3CC[C@@H](C2)N3C)[C@]2(C)[C@H](C)CC[C@]3(CCC(=O)[C@H]32)[C@@H](C)[C@@H]1O = 4

So what's the measured MIC for this one? `C=C[C@]1(C)C[C@@H](OC(=O)CSC(C)(C)CNC(=O)[C@H](N)C(C)C)[C@]2(C)[C@H](C)CC[C@]3(CCC(=O)[C@H]32)[C@@H](C)[C@@H]1O`
4

So what's the measured MIC for this one? `C=C[C@]1(C)C[C@@H](OC(=O)COC(=O)/C=C/c2ccc(OC)cc2)[C@]2(C)[C@H](C)CC[C@]3(CCC(=O)[C@H]32)[C@@H](C)[C@@H]1O`
4

So what's the measured MIC for this one? `C=C[C@]1(C)C[C@@H](OC(=O)COC(=O)/C=C/c2cc(Br)ccc2F)[C@]2(C)[C@H](C)CC[C@]3(CCC(=O)[C@H]32)[C@@H](C)[C@@H]1O`
16

So what's the measured MIC for this one? `C=C[C@]1(C)C[C@@H](OC(=O)COC(=O)/C=C/c2ccc(OCc3ccccc3)cc2)[C@]2(C)[C@H](C)CC[C@]3(CCC(=O)[C@H]32)[C@@H](C)[C@@H]1O`
16

So what's the measured MIC for this one? `C=C[C@]1(C)C[C@@H](OC(=O)COC(=O)/C=C/c2ccc(F)c(Cl)c2)[C@]2(C)[C@H](C)CC[C@]3(CCC(=O)[C@H]32)[C@@H](C)[C@@H]1O`
16

So what's the measured MIC for this one? `C=C[C@]1(C)C[C@@H](OC(=O)COC(=O)/C=C/c2ccc(OC)c(OC)c2)[C@]2(C)[C@H](C)CC[C@]3(CCC(=O)[C@H]32)[C@@H](C)[C@@H]1O`
4

So what's the measured MIC for this one? `C=C[C@]1(C)C[C@@H](OC(=O)COC(=O)/C=C/c2cccc(F)c2)[C@]2(C)[C@H](C)CC[C@]3(CCC(=O)[C@H]32)[C@@H](C)[C@@H]1O`
16

So what's the measured MIC for this one? `C=C[C@]1(C)C[C@@H](OC(=O)COC(=O)/C=C/c2ccccc2C(F)(F)F)[C@]2(C)[C@H](C)CC[C@]3(CCC(=O)[C@H]32)[C@@H](C)[C@@H]1O`
32

So what's the measured MIC for this one? `C=C[C@]1(C)C[C@@H](OC(=O)COC(=O)/C=C/c2cccc(C#N)c2)[C@]2(C)[C@H](C)CC[C@]3(CCC(=O)[C@H]32)[C@@H](C)[C@@H]1O`
2
